Tested on: KB-3-1
protocol_text: Cytotoxic Profiling of Annotated Libraries Using Quantitative High-Throughput Screening (AID 1296008); also: % is scaled to controls: 0 for no effect and ±100 for the full control effect; nearly all actives have a fitted effect of over 60% in size
protocol_conditions: Five cell lines viability, CellTiter-Glo ATP luminescence, 48-72 h; hits give low values
Records with an inconclusive call do not appear.
// reported max response per item

| compound | max response [%] |
| --- | --- |
| CC(=O)NCC1CN(c2ccc(-c3ccc(CNCc4cn[nH]n4)cc3)c(F)c2)C(=O)O1 (centres undefined) | -15.8 |
| O=C1C[C@@]2(C(=O)N1)C(=O)N(Cc1ccc(Br)cc1F)C(=O)c1cccn12 | 1.61 |
| CCC1(O)CC2c3cc(OC)c(OC)cc3CCN2CC1CC(C)C (centres undefined) | 7.48 |
| COc1cc(Nc2nc3c(s2)CCCC3c2ccccc2)ccc1-n1cnc(C)c1 (centres undefined) | -3.56 |
| CC(C)c1cc2c(c(O)c1O)[C@@]13CCCC(C)(C)C1[C@@H](O)[C@@H]2OC3=O (some centres undefined) | 7.44 |
| CC1OC(OC2C(OC3C(O[C@H]4CC[C@@]5(C)C(CC[C@]6(C)C5CC=C5C7CC(C)(C)CC(O)[C@]7(C)CC[C@]56C)C4(C)C)OC(C(=O)O)C(O)C3O)OCC(O)C2O)C(O)C(O)C1O (some centres undefined) | 9.21 |
| CCC(C)/C=C(C)/C=C/C(=O)C1CCC(O)C(C)(O)C1=O (centres undefined) | 9.09 |
| CC(C)c1ccc2c(c1)C(O)CC1C(C)(CO)CCCC21C (centres undefined) | 9.46 |
| COc1cc(C2OCC3(O)C(c4ccc(O[C@@H]5O[C@H](CO)[C@@H](O)[C@H](O)[C@H]5O)c(OC)c4)OCC23O)ccc1O (some centres undefined) | 7.65 |
| CC(C)c1ccc2c(c1)CCC1[C@](C)(C(=O)O)CCC[C@]21C (some centres undefined) | -0.955 |
| Cc1cc(-n2c(=O)[nH]c(=O)n(C)c2=O)ccc1Oc1ccc(SC(F)(F)F)cc1 | 1.4 |
| CC(=O)[C@@H]1C[C@H](C(C)(C)O[C@@H]2O[C@H](CO)[C@@H](O)[C@H](O)[C@H]2O)CC[C@@]2(CO)OC(=O)C[C@@H]12 | 1.24 |
| C=C1C(O)C(O)C2(CC3C(C)=CCC4C(C)(C(=O)O)CCCC34C)OC2C1O (centres undefined) | 2.87 |
| COc1c(C)c(OCC=C(C)C)cc2c1COC2=O | 4.15 |
| CC1=CCC2C(C)(C)CCCC2(C)C1CC12OC1C(O)C(CO)=CC2O (centres undefined) | 9.42 |
| COc1ccc(CC(NC(C)=O)C(=O)O)cc1 (centres undefined) | 6.09 |
| CC(=O)O[C@@H]1C=C2[C@H](CC[C@@]3(C)[C@@]2(O)CC[C@H]2Cc4c([nH]c5ccccc45)[C@@]23C)O[C@@H]1C(C)(C)O | 6.54 |
| C=C1CCC2C(C)(C)CCC[C@]2(C)[C@H]1CC/C(C)=C/C(=O)O (some centres undefined) | -7.37 |
| CC(CC12CCCN1C(=O)C1CCCN1C2=O)OC(N)=O (centres undefined) | 4.48 |

* * *

System: Zika virus NS2B-NS3 protease (linked construct)
protocol_text: Primary screen NINDS Rhodamine qHTS for Zika virus inhibitors (AID 1347160); also: nearly all actives have a fitted effect of over 55% in size; also: potency is read from the fitted curve at half-maximal effect
protocol_conditions: purified NS2B-NS3 protease, Rhodamine110 substrate fluorescence; series mostly up to 33.1 µM
Records with an inconclusive call do not appear. Activity calls are given as the source filed them. Calls come from the whole dose curve; as a rule, active = well fitted inhibition curve with a large enough effect; inconclusive = small, poorly fitted or top-dose-only effect; inactive = no such curve, though single readings can be large or run the other way.
quantity_measured: Potency

| compound | quantity_measured | endpoint_value |
| --- | --- | --- |
| CCC(C)C(=O)O[C@H]1C[C@](C)(O)[C@]23OC(C)(C)[C@H](C[C@H](OC(=O)c4ccccc4)[C@]2(COC(C)=O)[C@H]1OC(=O)C(C)CC)[C@H]3OC(C)=O (stereo partly specified) | Potency | inactive |
| CC(C)(O)/C=C/C(=O)[C@](C)(O)[C@H]1[C@H](O)C[C@@]2(C)[C@@H]3CC=C4[C@@H](C=C(O[C@@H]5O[C@H](CO)[C@@H](O)[C@H](O)[C@H]5O)C(=O)C4(C)C)[C@]3(C)C(=O)C[C@]12C | Potency | inactive |
| NC(Cc1c[nH]c2ccc(O)cc12)C(=O)O (stereo unspecified) | Potency | inactive |
| COC1CC(O[C@H]2CC[C@@]3(C)C(=CC[C@]4(O)C3[C@H](O)[C@@H](O)[C@]3(C)[C@@H]([C@H](C)O)CC[C@@]34O)C2)OC(C)C1OC1CC(OC)C(OC2CC(OC)C(OC3OC(C)C(OC4OC(CO)C(O)C(O)C4O)C(OC)C3O)C(C)O2)C(C)O1 (stereo partly specified) | Potency | inactive |
| Cc1ccc(C)c(S(=O)(=O)n2cnc3ccccc32)c1 | Potency | inactive |
| O=C(COCC(=O)N1CCN(C(c2ccccc2)c2ccccc2)CC1)Nc1ccc(Cl)cc1C(=O)O | Potency | 12.6 µM (active) |
| C/C=C(\C)C(=O)OCC1OC(OCC2OC(OC3(CO)OC(CO)C(O)C3O)C(O)C(O)C2O)C(O)C(O)C1O (stereo unspecified) | Potency | inactive |
| COc1cc(C(=O)OC[C@H]2O[C@@H](OC(C)(C)C(=O)O)[C@H](O)[C@@H](O)[C@@H]2O)cc(OC)c1O | Potency | inactive |
| CCC(C)/C=C(C)/C=C/C1=CC2=CC(=O)C(C)(O)C(OC(C)=O)C2CO1 (stereo unspecified) | Potency | inactive |
| COCC1OC(n2cnc3c(=O)[nH]cnc32)C(O)C1O (stereo unspecified) | Potency | inactive |
| COC(=O)C1(O)C(OC(C)=O)CCC2C3(CC(c4ccoc4)OC3=O)C(C)=CCC21C(=O)OC (stereo unspecified) | Potency | inactive |
| CC(=O)NC(Cc1c[nH]c2ccccc(=O)c12)C(=O)O (stereo unspecified) | Potency | 15.8 µM (active) |
| C=CCc1cc(OC)c(OC(C)C(O)c2ccc(O)c(OC)c2)c(OC)c1 (stereo unspecified) | Potency | inactive |
| CCC/C=C/C=C/C1CC(O)C(O)C(=O)C1CO (stereo unspecified) | Potency | inactive |
| C=C(C(=O)O)C1CC(OC(=O)CC(C)CC)C2(C)CCCC(=C)C2C1 (stereo unspecified) | Potency | inactive |
| COc1cc(C(O)C2COC(c3ccc(OC4OC(CO)C(O)C(O)C4O)c(OC)c3)C2CO)ccc1O (stereo unspecified) | Potency | inactive |
